src = ChEMBL document CHEMBL4049437

Assay: Maximum drug availability in rat hepatocytes
Type: ADME, cell-based, Hepatocyte
Settings: read-out: Fmax
ATTRIBUTE_MEASURED: Fh (%)
Write the answer as a number in %, unit excluded.

Please give the measured Fh for this compound: "Cc1cc2c(cc1N1C(=O)c3cccc4c(CCCO)ccc(c34)C1=O)n(C)c(=O)n2C"
9.4

----------
Target: Transcription initiation factor TFIID subunit 1 (Homo sapiens)
Sequence (P21675 whole entry, the tested form may be a part): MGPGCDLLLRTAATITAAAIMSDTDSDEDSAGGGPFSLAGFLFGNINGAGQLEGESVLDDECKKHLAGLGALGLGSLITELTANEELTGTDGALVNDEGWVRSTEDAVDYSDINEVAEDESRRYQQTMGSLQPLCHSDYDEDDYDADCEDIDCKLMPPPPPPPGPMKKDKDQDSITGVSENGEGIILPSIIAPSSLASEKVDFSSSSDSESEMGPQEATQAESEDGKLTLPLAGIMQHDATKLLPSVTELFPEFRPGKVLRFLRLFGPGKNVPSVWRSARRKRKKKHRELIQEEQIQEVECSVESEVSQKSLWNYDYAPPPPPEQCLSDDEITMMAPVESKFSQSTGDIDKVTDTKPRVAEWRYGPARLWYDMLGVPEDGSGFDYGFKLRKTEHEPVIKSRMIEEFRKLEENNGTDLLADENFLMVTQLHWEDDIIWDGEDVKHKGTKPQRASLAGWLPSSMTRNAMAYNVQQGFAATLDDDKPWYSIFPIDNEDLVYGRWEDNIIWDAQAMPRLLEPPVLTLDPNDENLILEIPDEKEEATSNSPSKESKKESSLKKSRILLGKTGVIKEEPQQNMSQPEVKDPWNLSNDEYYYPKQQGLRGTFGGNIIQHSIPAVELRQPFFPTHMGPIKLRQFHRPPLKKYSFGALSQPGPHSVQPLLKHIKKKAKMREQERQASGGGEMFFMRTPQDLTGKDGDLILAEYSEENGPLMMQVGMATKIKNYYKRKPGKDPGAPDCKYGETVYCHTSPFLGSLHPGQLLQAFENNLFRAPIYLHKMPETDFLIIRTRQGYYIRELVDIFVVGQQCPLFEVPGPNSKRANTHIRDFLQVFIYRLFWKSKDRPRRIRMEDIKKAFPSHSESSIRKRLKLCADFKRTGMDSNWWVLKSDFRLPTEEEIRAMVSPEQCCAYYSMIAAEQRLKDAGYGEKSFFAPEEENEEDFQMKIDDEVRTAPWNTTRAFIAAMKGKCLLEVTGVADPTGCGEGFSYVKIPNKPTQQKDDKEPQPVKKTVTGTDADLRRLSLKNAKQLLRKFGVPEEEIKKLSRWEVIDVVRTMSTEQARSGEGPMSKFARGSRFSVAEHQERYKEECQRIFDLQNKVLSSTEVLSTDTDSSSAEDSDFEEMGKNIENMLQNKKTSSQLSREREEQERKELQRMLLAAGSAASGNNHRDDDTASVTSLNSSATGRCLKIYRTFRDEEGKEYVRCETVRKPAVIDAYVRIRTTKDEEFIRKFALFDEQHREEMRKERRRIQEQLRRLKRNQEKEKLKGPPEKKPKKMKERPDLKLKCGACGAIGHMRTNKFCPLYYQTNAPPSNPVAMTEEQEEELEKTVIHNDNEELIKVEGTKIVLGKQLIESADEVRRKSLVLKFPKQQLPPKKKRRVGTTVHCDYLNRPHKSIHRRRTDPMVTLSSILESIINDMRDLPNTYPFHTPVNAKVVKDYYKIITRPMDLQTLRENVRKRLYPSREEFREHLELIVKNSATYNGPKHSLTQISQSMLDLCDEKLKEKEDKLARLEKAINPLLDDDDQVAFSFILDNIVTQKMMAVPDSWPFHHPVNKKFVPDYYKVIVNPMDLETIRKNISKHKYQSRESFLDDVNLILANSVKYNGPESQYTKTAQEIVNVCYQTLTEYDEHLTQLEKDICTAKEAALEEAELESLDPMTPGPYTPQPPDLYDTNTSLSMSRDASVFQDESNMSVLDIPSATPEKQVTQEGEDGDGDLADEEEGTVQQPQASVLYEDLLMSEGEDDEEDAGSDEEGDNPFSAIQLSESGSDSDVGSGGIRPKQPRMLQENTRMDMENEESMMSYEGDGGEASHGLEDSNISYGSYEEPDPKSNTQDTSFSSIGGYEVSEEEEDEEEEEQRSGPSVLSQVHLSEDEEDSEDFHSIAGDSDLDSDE
Assay: Inhibition of human GST-tagged TAF1 BD2 (1519 to 1651 residues) expressed in Escherichia coli BL21 (DE3)-R3-pRARE2 preincubated for 15 mins followed by addition of C-terminal biotinylated synthetic K5,8,12,16 tetra-acetylated histone H4 (1 to 20 residues) peptide as substrate measured after 1 hr by TR-FRET assay
Please provide measured log10 IC50 for the entries that follow.
Log10 applied to IC50; unit prior to transform: nM.

Consider the molecule shown here: "Cc1cc2c(cc1N1C(=O)c3cccc4c(N5CCOCC5)ccc(c34)C1=O)n(C)c(=O)n2C" What is its recorded log10 IC50?
1.95

What do you have for "Cc1cc2c(cc1N1C(=O)c3cccc4cc(Br)cc(c34)C1=O)n(C)c(=O)n2C" ?
1.23

Can you handle "CCCNc1ccc2c3c(cccc13)C(=O)N(c1cc3c(cc1C)n(C)c(=O)n3C)C2=O" next?
0.48

Please answer likewise for "Cc1cc2c(cc1N1C(=O)c3cccc4c(N5CCCCC5)ccc(c34)C1=O)n(C)c(=O)n2C"
0.85

Please give the result for "Cc1cc2c(cc1N1C(=O)c3cccc4c(N5CCN(CCN(C)C)CC5)ccc(c34)C1=O)n(C)c(=O)n2C" too.
1.40

Subsequent entry: "Cn1c(=O)n(C)c2cc(N3C(=O)c4cccc5cccc(c45)C3=O)c(Br)cc21"
1.94

Consider next the molecule "Cc1cc2c(cc1N1C(=O)c3cccc4c(N5CCC(O)CC5)ccc(c34)C1=O)n(C)c(=O)n2C" in the same way.
1.28

What about this molecule? "Cc1cc2c(cc1N1C(=O)c3cccc4c(N5CCN(C)CC5)ccc(c34)C1=O)n(C)c(=O)n2C"
0.60

Next record, please: "COC1CCN(c2ccc3c4c(cccc24)C(=O)N(c2cc4c(cc2C)n(C)c(=O)n4C)C3=O)CC1"
1.18

Please answer likewise for "Cc1cc2c(cc1N1C(=O)c3cccc4c(Cl)ccc(c34)C1=O)n(C)c(=O)n2C"
0.90

Now this one: "Cc1cc2c(cc1N1C(=O)c3cccc4cc(C#N)cc(c34)C1=O)n(C)c(=O)n2C"
1.34

Follow-up item: "Cc1cc2c(cc1N1C(=O)c3cccc4c(N5CCN(CC6CC6)CC5)ccc(c34)C1=O)n(C)c(=O)n2C"
1.15

Try the molecule "Cc1cc2c(cc1N1C(=O)c3cccc4cc(O)cc(c34)C1=O)n(C)c(=O)n2C"
1.11

What would you report for "Cc1cc2c(cc1N1C(=O)c3cccc4cccc(c34)C1=O)n(C)c(=O)n2C" ?
1.78

Also "Cc1cc2c(cc1N1C(=O)c3cccc4c(Br)ccc(c34)C1=O)n(C)c(=O)n2C" , if possible.
0.60

Please give the result for "Cn1c(=O)[nH]c2cc(N3C(=O)c4cccc5c(CCCO)ccc(c45)C3=O)ccc21" too.
4.14

Same read-out for "Cc1cc2c(cc1N1C(=O)c3cccc4c(CCCCO)ccc(c34)C1=O)n(C)c(=O)n2C" ?
0.85

----------
Biological target: Peregrin (Homo sapiens)
Sequence (P55201 whole entry): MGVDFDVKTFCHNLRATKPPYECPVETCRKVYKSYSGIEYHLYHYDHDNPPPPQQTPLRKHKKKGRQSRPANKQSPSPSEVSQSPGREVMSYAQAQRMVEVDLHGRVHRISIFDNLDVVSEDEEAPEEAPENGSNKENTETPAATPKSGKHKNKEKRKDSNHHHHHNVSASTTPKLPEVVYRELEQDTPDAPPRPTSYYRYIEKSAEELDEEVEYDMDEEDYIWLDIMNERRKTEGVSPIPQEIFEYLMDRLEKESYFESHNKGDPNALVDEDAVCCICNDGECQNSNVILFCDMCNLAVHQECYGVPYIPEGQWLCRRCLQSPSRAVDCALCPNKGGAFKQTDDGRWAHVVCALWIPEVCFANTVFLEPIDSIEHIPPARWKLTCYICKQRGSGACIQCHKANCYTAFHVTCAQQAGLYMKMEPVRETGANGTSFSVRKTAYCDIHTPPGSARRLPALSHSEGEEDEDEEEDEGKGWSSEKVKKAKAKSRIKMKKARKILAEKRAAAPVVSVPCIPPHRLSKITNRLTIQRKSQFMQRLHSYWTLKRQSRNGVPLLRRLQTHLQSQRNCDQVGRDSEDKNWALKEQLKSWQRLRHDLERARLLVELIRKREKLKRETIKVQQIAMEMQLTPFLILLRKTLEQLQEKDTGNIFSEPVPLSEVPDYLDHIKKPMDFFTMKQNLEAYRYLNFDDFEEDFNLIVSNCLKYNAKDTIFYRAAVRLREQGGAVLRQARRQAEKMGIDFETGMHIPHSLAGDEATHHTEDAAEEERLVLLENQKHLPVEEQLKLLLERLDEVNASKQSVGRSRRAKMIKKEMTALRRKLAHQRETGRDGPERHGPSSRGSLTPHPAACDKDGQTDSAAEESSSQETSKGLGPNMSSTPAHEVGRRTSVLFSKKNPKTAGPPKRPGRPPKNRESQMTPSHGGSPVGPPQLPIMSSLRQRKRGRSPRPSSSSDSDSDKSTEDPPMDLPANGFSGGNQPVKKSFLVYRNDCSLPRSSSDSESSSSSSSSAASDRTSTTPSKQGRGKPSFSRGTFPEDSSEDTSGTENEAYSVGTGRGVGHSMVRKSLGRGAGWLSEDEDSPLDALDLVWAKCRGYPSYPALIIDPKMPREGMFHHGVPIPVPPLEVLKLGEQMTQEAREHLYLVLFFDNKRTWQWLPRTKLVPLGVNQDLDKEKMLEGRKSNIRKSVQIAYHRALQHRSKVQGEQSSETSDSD
Assay: Inhibition of His-tagged BRPF1 (626 to 740 residues) (unknown origin) preincubated for 15 mins followed by addition of C-terminal biotinylated synthetic K5,12 diacetylated histone H4 (1 to 20 residues) peptide as substrate measured after 1 hr by TR-FRET assay
For each entry below, report its pIC50 value.
Bear in mind: pIC50 is minus log10 of a mol/L concentration; give just that figure.

# lookup: pIC50 of "Cc1cc2c(cc1N1C(=O)c3cccc4cc(Br)cc(c34)C1=O)n(C)c(=O)n2C"
5.72

Note, next up: "Cc1cc2c(cc1N1C(=O)c3cccc4c(CCCCO)ccc(c34)C1=O)n(C)c(=O)n2C"
5.64

Try this compound next: "Cc1cc2c(cc1N1C(=O)c3cccc4c(N5CCN(CC6CC6)CC5)ccc(c34)C1=O)n(C)c(=O)n2C"
5.91

Similarly, "CN1CCN(c2cc3c(cc2N2C(=O)c4cccc5cccc(c45)C2=O)n(C)c(=O)n3C)CC1" ?
6.24

Can you check "Cc1cc2c(cc1N1C(=O)c3cccc4cc(C#N)cc(c34)C1=O)n(C)c(=O)n2C" next?
5.65

Now consider "Cc1cc2c(cc1N1C(=O)c3cccc4c(N5CCCC5)ccc(c34)C1=O)n(C)c(=O)n2C" and answer again.
5.34

Lookup "CN(C)c1cc2c(cc1N1C(=O)c3cccc4cccc(c34)C1=O)n(C)c(=O)n2C"
6.20

Try "Cc1cc2c(cc1N1C(=O)c3cccc4c(N5CCC(O)CC5)ccc(c34)C1=O)n(C)c(=O)n2C" next.
5.38

# repeat for "Cc1cc2c(cc1N1C(=O)c3cccc4c(N5CCOCC5)ccc(c34)C1=O)n(C)c(=O)n2C"
5.48

----------
Give IC50 for every item shown.
Target: Bromodomain-containing protein 4 (Homo sapiens, UniProt O60885)
Experiment: Inhibition of BRD4 BD2 (unknown origin) preincubated for 15 mins followed by addition of C-terminal biotinylated synthetic K5,8,12,16 tetra-acetylated histone H4 (1 to 20 residues) peptide as substrate measured after 1 hr by TR-FRET assay

Param readout= IC50; system= Bromodomain-containing protein 4 (Homo sapiens, UniProt O60885); entry= "Cc1cc2c(cc1N1C(=O)c3cccc4cc(O)cc(c34)C1=O)n(C)c(=O)n2C" ; returns value.
> 20 µM

Check "Cc1cc2c(cc1N1C(=O)c3cccc4c(Br)ccc(c34)C1=O)n(C)c(=O)n2C" too.
> 20 µM

Moving on to the next compound: "CN(C)c1cc2c(cc1N1C(=O)c3cccc4cccc(c34)C1=O)n(C)c(=O)n2C"
> 20 µM

Moving on to "Cc1cc2c(cc1N1C(=O)c3cccc4c(N5CCN(CCN(C)C)CC5)ccc(c34)C1=O)n(C)c(=O)n2C"
> 15 µM

----------
Target: Peregrin (Homo sapiens)
Sequence (P55201 whole entry): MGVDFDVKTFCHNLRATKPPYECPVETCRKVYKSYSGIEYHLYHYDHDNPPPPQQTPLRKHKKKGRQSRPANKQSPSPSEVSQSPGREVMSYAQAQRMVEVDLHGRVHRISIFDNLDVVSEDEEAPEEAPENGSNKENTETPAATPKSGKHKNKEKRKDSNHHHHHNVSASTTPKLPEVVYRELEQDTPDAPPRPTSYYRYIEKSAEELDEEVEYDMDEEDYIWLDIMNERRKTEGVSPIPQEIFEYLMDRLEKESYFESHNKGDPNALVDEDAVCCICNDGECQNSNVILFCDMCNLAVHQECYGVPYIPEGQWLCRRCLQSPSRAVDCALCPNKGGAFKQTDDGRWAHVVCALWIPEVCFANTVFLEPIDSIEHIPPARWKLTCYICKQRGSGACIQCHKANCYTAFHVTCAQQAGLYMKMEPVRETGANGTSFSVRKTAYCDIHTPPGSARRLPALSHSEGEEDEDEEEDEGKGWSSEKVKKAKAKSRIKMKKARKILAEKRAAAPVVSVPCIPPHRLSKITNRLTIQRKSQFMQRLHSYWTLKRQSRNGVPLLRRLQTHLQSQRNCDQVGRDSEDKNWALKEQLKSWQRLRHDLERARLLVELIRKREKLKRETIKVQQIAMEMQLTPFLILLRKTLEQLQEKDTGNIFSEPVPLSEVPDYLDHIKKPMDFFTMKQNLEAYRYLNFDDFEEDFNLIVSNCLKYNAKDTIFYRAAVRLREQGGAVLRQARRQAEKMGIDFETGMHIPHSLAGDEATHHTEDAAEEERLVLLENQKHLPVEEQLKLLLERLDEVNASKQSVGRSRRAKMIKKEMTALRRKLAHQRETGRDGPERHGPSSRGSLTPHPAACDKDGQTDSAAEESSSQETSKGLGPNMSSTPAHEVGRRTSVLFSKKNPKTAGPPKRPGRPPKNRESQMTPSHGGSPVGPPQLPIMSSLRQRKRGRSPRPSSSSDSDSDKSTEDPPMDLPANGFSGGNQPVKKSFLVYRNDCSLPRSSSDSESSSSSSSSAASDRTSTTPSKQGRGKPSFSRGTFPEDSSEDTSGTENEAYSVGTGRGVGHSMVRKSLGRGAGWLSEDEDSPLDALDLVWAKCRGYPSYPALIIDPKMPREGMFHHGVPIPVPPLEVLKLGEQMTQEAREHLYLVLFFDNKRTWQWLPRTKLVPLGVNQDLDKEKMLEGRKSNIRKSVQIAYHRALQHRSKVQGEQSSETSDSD
Assay: Inhibition of His-tagged BRPF1 (626 to 740 residues) (unknown origin) preincubated for 15 mins followed by addition of C-terminal biotinylated synthetic K5,12 diacetylated histone H4 (1 to 20 residues) peptide as substrate measured after 1 hr by TR-FRET assay
What pIC50 was measured for each of the following?
Reminder that pIC50 means the negative base-10 logarithm of the concentration expressed in mol/L.

Hello, I am looking for reported pIC50 with Peregrin (Homo sapiens) for "CCCNc1ccc2c3c(cccc13)C(=O)N(c1cc3c(cc1C)n(C)c(=O)n3C)C2=O" . Could you help?
4.85

What would you report for "COc1cc2c(cc1N1C(=O)c3cccc4cccc(c34)C1=O)n(C)c(=O)n2C" ?
5.94

Same thing, different molecule: "Cc1cc2c(cc1N1C(=O)c3cccc4c(N5CCCCC5)ccc(c34)C1=O)n(C)c(=O)n2C"
4.88

Now consider "Cn1c(=O)n(C)c2cc(N3C(=O)c4cccc5cccc(c45)C3=O)c(Br)cc21" .
6.07

Try this molecule next: "Cc1cc2c(cc1N1C(=O)c3cccc4cc(N)cc(c34)C1=O)n(C)c(=O)n2C"
5.26

Let us now turn to "Cc1cc2c(cc1N1C(=O)c3cccc4cccc(c34)C1=O)n(C)c(=O)n2C"
5.81

Proceed to "Cc1cc2c(cc1N1C(=O)c3cccc4cc(O)cc(c34)C1=O)n(C)c(=O)n2C"
5.43

Would you mind doing "Cc1cc2c(cc1N1C(=O)c3cccc4c(N(C)CCN5CCCC5)ccc(c34)C1=O)n(C)c(=O)n2C" as well?
5.88
